# experiment description: NINCDS rotorod ataxia test (minimal neurotoxicity)
# Type: in vivo, mice
# condition notes: mouse, in vivo, ip; secondary evaluation, at time of peak effect
assay endpoint: TD50 (mg/kg)
Reply with just the number (in mg/kg).

Sure, the documented TD50 for O=C(Cc1nc2ccccc2c(=O)n1-c1ccccc1Cl)c1ccncc1 [IVd] is 137

Sure, the documented TD50 for Cc1ccccc1-n1c(C)nc2ccccc2c1=O [methaqualone, 2-methyl-3-o-tolyl-4(3H)-quinazolinone, reference compound] is 55

Sure, the documented TD50 for Cc1ccccc1-n1c(CC(=O)c2ccncc2)nc2ccccc2c1=O [IIId] is 440

---

# experiment description: NINCDS Subcutaneous Pentylenetetrazol (Metrazol) Seizure Threshold Test (scMet)
# Assay type: in vivo, mice
# condition notes: Mus musculus, sc; after 4 hr (value in parentheses); read-out: scMet: dosage level that elicited protection
Please respond with reported minimal effective dose for every item in the list.
Reply with just the number (in mg/kg).

Sure, the documented minimal effective dose for O=C(Cc1nc2ccccc2c(=O)n1-c1ccccc1Cl)c1cccnc1 [IVc] is 300

Sure, the documented minimal effective dose for Cc1ccccc1-n1c(C)nc2ccccc2c1=O [methaqualone, 2-methyl-3-o-tolyl-4(3H)-quinazolinone, reference compound] is 300

Sure, the documented minimal effective dose for Cc1ccccc1-n1c(CC(=O)c2ccc[n+](C)c2)nc2ccccc2c1=O [CO-3-C5 H4 N^+ CH3 I^-] is 30

Sure, the documented minimal effective dose for Cc1ccccc1-n1c(CC(=O)c2cccnc2)nc2ccccc2c1=O [IIIc] is 300

Sure, the documented minimal effective dose for Cn1c(CC(=O)c2ccccc2)nc2ccccc2c1=O [IVr] is 300

Sure, the documented minimal effective dose for O=C(Cc1nc2ccccc2c(=O)n1-c1ccccc1Cl)c1ccncc1 [IVd] is 100

Sure, the documented minimal effective dose for Cc1nc2ccccc2c(=O)n1-c1ccccc1Cl [mecloqualone, reference compound] is 100

Sure, the documented minimal effective dose for Cc1ccccc1-n1c(C)nc2cc(N)ccc2c1=O [H and 7-amino, reference compound] is 100

Sure, the documented minimal effective dose for CCc1nc2ccccc2c(=O)n1-c1ccccc1C [CH3, 2-Ethyl-3-o-tolyl-4(3H)-quinazolinone, reference compound] is 300

Sure, the documented minimal effective dose for CC(=O)Cc1nc2ccccc2c(=O)n1-c1ccccc1C [IIIn, 2-Acetonyl-3-o-tolyl-4(3H)-quinazolinone] is 300

Sure, the documented minimal effective dose for Cc1ccccc1-n1c(CC(=O)c2ccncc2)nc2ccccc2c1=O [IIId] is 300

Sure, the documented minimal effective dose for Cc1ccccc1-n1c(CCc2ccccc2)nc2ccccc2c1=O [CH2 C6 H5, reference compound] is 300

Sure, the documented minimal effective dose for Cc1ccc(-n2c(CC(=O)c3ccncc3)nc3ccccc3c2=O)cc1 [IVl] is 300
